Target: IRAK4 (Homo sapiens, UniProt Q9NWZ3)
Sequence (Q9NWZ3 whole entry): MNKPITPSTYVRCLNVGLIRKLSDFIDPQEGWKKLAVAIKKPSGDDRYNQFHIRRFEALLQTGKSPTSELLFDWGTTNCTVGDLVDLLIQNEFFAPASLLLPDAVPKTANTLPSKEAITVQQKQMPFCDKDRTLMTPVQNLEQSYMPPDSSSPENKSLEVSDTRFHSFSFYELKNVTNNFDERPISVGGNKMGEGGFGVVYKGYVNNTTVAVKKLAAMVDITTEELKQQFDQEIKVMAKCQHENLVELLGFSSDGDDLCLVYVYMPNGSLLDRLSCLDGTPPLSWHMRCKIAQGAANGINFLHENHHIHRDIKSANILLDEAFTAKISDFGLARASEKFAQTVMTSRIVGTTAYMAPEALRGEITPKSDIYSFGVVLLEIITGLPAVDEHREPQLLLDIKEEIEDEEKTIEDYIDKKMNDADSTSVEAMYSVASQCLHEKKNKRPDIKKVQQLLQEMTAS
Experiment: IRAK4 degradation in OCI-LY10 (MSD, Meso Scale Discovery)
Assay type: cell-based
Parameters: endogenous in cells; host or cells: OCI-LY10
Settings: OCI-LY10 cells, 24 h
# DC50 listing for each entry below
quantity: DC50

item.smiles | target | recorded.value
COc1cc(-c2ccc(F)c(CCCCCCCCCNC[C@H]3CC[C@H](n4cc(NC(=O)c5cnn6ccc(N7C[C@H]8C[C@@H]7CO8)nc56)c(C(F)F)n4)CC3)c2)ccc1C(=O)Nc1ccc(=O)n(CC(=O)O)c1 | IRAK4 (Homo sapiens, UniProt Q9NWZ3) | > 10 µM
COc1cc(-c2ccc(F)c(CCCCCCCCCNC[C@H]3CC[C@H](n4cc5cc(NC(=O)c6cccc(C(F)(F)F)n6)c(C(C)(C)O)cc5n4)CC3)c2)ccc1C(=O)Nc1ccc(=O)n(CC(=O)O)c1 | IRAK4 (Homo sapiens, UniProt Q9NWZ3) | > 10 µM
